- target-or-system: T1, CLL-1 on the surface of CLL-1-positive AML cell lines (HL-60 WT, U937) (human, UniProt Q5QGZ9 1-265)
- T1 construct: whole, on cells; also called HL-60 WT cells; U937 cells
- T1 sequence (looked up): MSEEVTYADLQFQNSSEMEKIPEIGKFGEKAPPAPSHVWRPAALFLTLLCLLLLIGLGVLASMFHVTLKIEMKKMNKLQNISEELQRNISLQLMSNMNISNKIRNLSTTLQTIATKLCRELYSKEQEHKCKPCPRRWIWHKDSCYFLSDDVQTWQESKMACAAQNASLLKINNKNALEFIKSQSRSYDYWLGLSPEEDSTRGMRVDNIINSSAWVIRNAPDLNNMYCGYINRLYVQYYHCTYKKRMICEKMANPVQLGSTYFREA
- experiment-summary: flow cytometry, U937, 200 nM; last table names out of step
Field: Geometric Mean : B530-H. Provide a value for each of the binders that follow.
// keep it numeric: no unit symbol after the value

Q: Tell me the measured Geometric Mean : B530-H of Anti-CLL-1 Binder Clone 20 (VHH, also called 20 VH; VH clone 20; not shown: FLAG tag) VHH: QVQLVQSGGGLVQPGGSLRLSCAASDFSFSYYEMSWVRQAPGKGLEWVSTISGSGDSTYYADSVKGRFTISRDNTKNTLYLQMNTLRAEDTATYYCMTDGETWGTHRYTVYWGQGALVTVSS , please.
A: 27000

Q: Tell me the measured Geometric Mean : B530-H of Anti-CLL-1 Binder Clone 6 (scFv, scFv (VL-linker-VH); not shown: FLAG tag) scFv: QSVLTQPPSVSAAPGQKVSIFCSGGSSNIGKNYVSWYQQLPGTAPKLLIYENQHRPSGIPDRFSGSKSGTSATLGITGLQTGDEADYYCATWDDSLSAGVFGGGTELTVLGGGGSGGGGSGGGGSQLVQSGAEVRKPGESLKISCKGSGYSFTSYWIGWVRQMPGKGLEWMGFIYPGDSDTRYSPSFQGQVTISADKSISTAYLQRSSLKASDTAMYYCARLGGYSGYDSEVFYLDYWGQGTTVTVSS , please.
A: 34300

Q: Tell me the measured Geometric Mean : B530-H of Anti-CLL-1 Binder Clone 4 (scFv, scFv (VL-linker-VH); not shown: FLAG tag) scFv: QSVVTQPPSVSAAPGQKVTISCSGSSPNIGKNYVSWYQQLPGTAPKLLIYDNNKRPSGIPDRFSGSKSGTSATLGITGLQTGDEADYYCGTWDSSLSGYVFGTGTKVTVLGGGGSGGGGSGGGGSQVQLVESGGGVVQPGRSLRLSCAASGFTFSSYGMHWVRQAPGKGLEWVAFISHDGSNKYYADSVKGRSTISRDNSKSTLFLQMNSLRDEDTAVYFCAREGQLTTSWDFFDYWGHGTLVTVSS , please.
A: 33600

Q: Tell me the measured Geometric Mean : B530-H of Anti-CLL-1 Binder Clone 11 (scFv, scFv (VL-linker-VH); not shown: FLAG tag) scFv: QSVLTQPASVSGSPGQSITISCTGTSSDVGASNSVSWYQRHPGKPPKLMIYDVSNRPSGISNRFSGSKSGNTASLTISGLQSEDEADYYCSSYTGSSTFVVFGGGTQLIILGGGGSGGGGSGGGGSEVQLVESGGGVVQPGGSLRLSCAASGFTFSSYWMSWVRQAPGKGLEWVANIRQDGSEKYYVDSVKGRFTISRDNAKNSLYLQMNSLRAEDAAVYYCAREQDTAMVAFDYWGQGTLVTVSS , please.
A: 60200
